Origin of values: patent US20180235993A1

Reported values of CC50 for individual entries
Test system: MDBK cells

Query Smiles: C[C@@]1(O)[C@H](O)[C@@H](CO)O[C@H]1n1ccc(N)nc1=O
Recorded Result: 100 µM

Shifting focus to the molecule that follows.
Notebook: pull reported CC50 for MDBK cells, entry `C[C@@]1(O)[C@H](O)[C@@H](CO)O[C@H]1n1ccc(=O)[nH]c1=O`
> 250 µM

----------
Protocol: Bioavailability assay in Cynomolgus monkeys
Type: in vivo, Cynomolgus monkey
Conditions Used: cynomolgus monkey, blood, iv, 10 mg/kg, IV Monkey 1, dose 46.44 mg (10 mg/kg)
Property: AUC (ng·h/mL)
Write it as a number; the unit ng·h/mL goes unstated.

Reported AUC for CC1(O)[C@@H](O)[C@@H](CO)O[C@H]1n1cnc2c(=O)[nH]c(N)nc21 (stereo partly shown) : what is it?
13600

----------
Tested on: BVDV (strain NADL)
Protocol: Cell Protection Assay (CPA)
Assay type: cell-based, Bovine Viral Diarrhea virus
Conditions Used: read-out: Cell Protection (EC50)
Property: EC50 (µM)
Write it as a number; the unit µM goes unstated.

Illustrative cases are given below, each with its answer.
Compound: C[C@@]1(O)[C@H](O)[C@@H](CO)O[C@H]1n1ccc(=O)[nH]c1=O [β-D-2′-CH3-riboU]
Assayed System: BVDV (strain NADL)
Property: EC50
Scale Unit: µM
Recorded Result: 20
//
Compound: C[C@@]1(O)[C@H](O)[C@@H](CO)O[C@H]1n1ccc(N)nc1=O [β-D-2′-CH3-riboC]
Assayed System: BVDV (strain NADL)
Property: EC50
Scale Unit: µM
Recorded Result: 2

Shifting focus to the compound that follows.
Reported EC50 for C[C@@]1(O)[C@H](O)[C@@H](CO)O[C@H]1n1cnc2c(=O)[nH]cnc21 [β-D-2′-CH3-riboI] : what is it?
45

----------
Test system: Bovine Viral Diarrhea virus (BVDV)
Protocol: microbe, parasite or virus in culture
Assay type: cell-based
Conditions Used: Bovine viral diarrhea virus isolates and strains, read-out: Comparative Antiviral Activity EC50 BVDV
Property: EC50 (µM)
Write it as a number; the unit µM goes unstated.

Compound: CC1(O)[C@@H](O)[C@@H](CO)O[C@H]1n1cnc2c(N)ncnc21 (some centres unmarked)
Scale Unit: µM
EC50: 0.1

Reported EC50 for C[C@@]1(n2cnc3c(N)ncnc32)O[C@H](CO)[C@H](O)C1O (some centres unmarked) : what is it?
10

----------
Test system: various cell systems
Conditions Used: read-out: YFV CC50; Table 12; reduce the viability of cells by 50%; YFV-BHK system
Reported values of CC50 for individual entries

Query Smiles: C[C@@]1(O)[C@H](O)[C@@H](CO)O[C@H]1n1ccc(N)nc1=O
Recorded Result: > 100 µM

Shifting focus to the compound that follows.
Reported CC50 for `C[C@@]1(O)[C@H](O)[C@@H](CO)O[C@H]1n1ccc(=O)[nH]c1=O` : what is it?
> 100 µM

----------
Protocol: Bioavailability assay in Cynomolgus monkeys
Format: in vivo, Cynomolgus monkey
Conditions Used: cynomolgus monkey, blood, 10 mg/kg; Table 2, monkeys, PO vs IV; read-out: F (oral bioavailability)
Property: bioavailability (%)
Write it as a number; the unit % goes unstated.

Reported bioavailability for CC1(O)[C@@H](O)[C@@H](CO)O[C@H]1n1cnc2c(=O)[nH]c(N)nc21 (stereo partly shown) : what is it?
13.6

----------
Reported values of CC50 for individual entries
Protocol: in vitro
Conditions Used: hamster
Write it as a number; the unit µM goes unstated.

Illustrative cases are given below, each with its answer.
Compound: C[C@@]1(n2cnc3c(N)ncnc32)O[C@H](CO)[C@H](O)C1O (stereo partly drawn)
Recorded Result: 200
//
Compound: NC(=O)c1ncn([C@@H]2O[C@H](CO)[C@@H](O)[C@H]2O)n1 [Ribavirin, reference compound]
Recorded Result: 50

Reported CC50 for CC1(O)[C@@H](O)[C@@H](CO)O[C@H]1n1cnc2c(N)ncnc21 (stereo partly drawn) : what is it?
22

----------
Protocol: Bioavailability assay in Cynomolgus monkeys
Type: in vivo, Cynomolgus monkey
Conditions Used: cynomolgus monkey, blood, po, 10 mg/kg, PO Monkey 3, dose 30.04 mg (10 mg/kg)
Property: AUC

Reported AUC for CC1(O)[C@@H](O)[C@@H](CO)O[C@H]1n1cnc2c(=O)[nH]c(N)nc21 (stereo partly shown) : what is it?
1840 ng·h/mL

----------
Tested on: YFV-17D
Protocol: microbe, parasite or virus in culture
Format: cell-based, Yellow fever virus vaccine strain 17D
Conditions Used: Table 12; reduce the plaque number by 50%; YFV-BHK; read-out: YFV EC50
Property: pEC50
When answering, recall that pEC50 equals minus log10 of the concentration in mol/L, and write that number alone.

Query Smiles: C[C@@]1(O)[C@H](O)[C@@H](CO)O[C@H]1n1ccc(=O)[nH]c1=O
Property: pEC50
Recorded Result: 4.48

Reported pEC50 for `C[C@@]1(O)[C@H](O)[C@@H](CO)O[C@H]1n1ccc(N)nc1=O` : what is it?
4.15

----------
Reported values of intracellular triphosphate level for individual entries
Test system: HepG2 cells
Protocol: Phosphorylation assay of nucleoside to active triphosphate
Format: in vitro ADME
Conditions Used: 10 μM [3H] labeled compound, 30 h

Molecule: C[C@@]1(O)[C@H](O)[C@@H](COP(=O)(O)OP(=O)(O)OP(=O)(O)O)O[C@H]1n1cnc2c(N)ncnc21 [β-D-2′-CH3-riboA-TP]
Recorded Result: 456 pmol/million cells
//
Molecule: C[C@@]1(O)[C@H](O)[C@@H](COP(=O)(O)OP(=O)(O)OP(=O)(O)O)O[C@H]1n1cnc2c(=O)[nH]c(N)nc21 [β-D-2′-CH3-riboG-TP]
Recorded Result: 3.22 pmol/million cells
//
Molecule: C[C@@]1(O)[C@H](O)[C@@H](COP(=O)(O)OP(=O)(O)OP(=O)(O)O)O[C@H]1n1ccc(N)nc1=O [β-D-2′-CH3-riboC-TP]
Recorded Result: 36.2 pmol/million cells

Shifting focus to the molecule that follows.
Notebook: pull reported intracellular triphosphate level for HepG2 cells, entry C[C@@]1(O)[C@H](O)[C@@H](COP(=O)(O)OP(=O)(O)OP(=O)(O)O)O[C@H]1n1ccc(=O)[nH]c1=O [β-D-2′-CH3-riboU-TP]
7.18 pmol/million cells

----------
Tested on: YFV-17D
Protocol: microbe, parasite or virus in culture
Type: cell-based, Yellow fever virus vaccine strain 17D
Conditions Used: Yellow fever virus, read-out: Comparative Antiviral Activity EC50 YFV
Reported values of pEC50 for individual entries
When answering, recall that pEC50 equals minus log10 of the concentration in mol/L, and write that number alone.

Molecule: C[C@@]1(n2cnc3c(N)ncnc32)O[C@H](CO)[C@H](O)C1O (stereo partly drawn)
pEC50: 5.15
--
Molecule: CC1(O)[C@@H](O)[C@@H](CO)O[C@H]1n1cnc2c(N)ncnc21 (stereo partly drawn)
pEC50: 6.70

Shifting focus to the molecule that follows.
Reported pEC50 for NC(=O)c1ncn([C@@H]2O[C@H](CO)[C@@H](O)[C@H]2O)n1 [Ribavirin, reference compound] : what is it?
4.52

----------
Protocol: Bioavailability assay in Cynomolgus monkeys
Assay type: in vivo, Cynomolgus monkey
Conditions Used: cynomolgus monkey, blood; Cynomolgus monkeys, IV 10 mg/kg
Property: clearance (L/h/kg)
Write it as a number; the unit L/h/kg goes unstated.

Reported clearance for CC1(O)[C@@H](O)[C@@H](CO)O[C@H]1n1cnc2c(=O)[nH]c(N)nc21 (stereo partly drawn) [β-D-2′-CH3-riboG] : what is it?
1.28

----------
Protocol: in vitro
Conditions Used: African green monkey
Property: CC50 (µM)
Write it as a number; the unit µM goes unstated.

Compound: NC(=O)c1ncn([C@@H]2O[C@H](CO)[C@@H](O)[C@H]2O)n1 [Ribavirin, reference compound]
CC50 / µM: 11

Shifting focus to the compound that follows.
Reported CC50 for CC1(O)[C@@H](O)[C@@H](CO)O[C@H]1n1cnc2c(N)ncnc21 (stereo partly drawn) : what is it?
22

----------
Reported values of CC50 for individual entries
Test system: Human Hepatoma
Protocol: Cytotoxicity assay (sulforhodamine B, CC50), Human Hepatoma
Type: cell-based
Conditions Used: HepG2 cells, 4 days incubation; read-out: CC50 HepG2
Procedure: Cells were seeded at a rate of between 5×10^3 and 5×10^4/well into 96-well plates in growth medium overnight at 37° C. in a humidified CO2 (5%) atmosphere. New growth medium containing serial dilutions of the drugs was then added. After incubation for 4 days, cultures were fixed in 50% TCA and stained with sulforhodamineB. The optical density was read at 550 nm. The cytotoxic concentration was expressed as the concentration required to reduce the cell number by 50% (CC50).

Illustrative cases are given below, each with its answer.
Compound: CC1(O)[C@@H](O)[C@@H](CO)O[C@H]1n1cnc2c(=O)[nH]c(N)nc21 (stereo partly drawn) [β-D-2'-CH3-riboG]
Recorded Result: > 250 µM

Compound: C[C@@]1(O)[C@H](O)[C@@H](CO)O[C@H]1n1ccc(N)nc1=O [β-D-2'-CH3-riboC]
Recorded Result: 150 µM

Compound: C[C@@]1(O)[C@H](O)[C@@H](CO)O[C@H]1n1ccc(=O)[nH]c1=O [β-D-2'-CH3-riboU]
Recorded Result: > 250 µM

Shifting focus to the compound that follows.
Notebook: pull reported CC50 for Human Hepatoma, entry CC1(O)[C@@H](O)[C@@H](CO)O[C@H]1n1cnc2c(N)ncnc21 (stereo partly drawn) [β-D-2'-CH3-riboA]
50 to 60 µM
